Data provenance is paper PMC10244618.

B1: NF2 (merlin) isoform 7, human, full length (507 aa, lacks exons 2-3 = isoform-1 residues 39-121; exon-16 C-terminus), P35240-4 (parent)
chain: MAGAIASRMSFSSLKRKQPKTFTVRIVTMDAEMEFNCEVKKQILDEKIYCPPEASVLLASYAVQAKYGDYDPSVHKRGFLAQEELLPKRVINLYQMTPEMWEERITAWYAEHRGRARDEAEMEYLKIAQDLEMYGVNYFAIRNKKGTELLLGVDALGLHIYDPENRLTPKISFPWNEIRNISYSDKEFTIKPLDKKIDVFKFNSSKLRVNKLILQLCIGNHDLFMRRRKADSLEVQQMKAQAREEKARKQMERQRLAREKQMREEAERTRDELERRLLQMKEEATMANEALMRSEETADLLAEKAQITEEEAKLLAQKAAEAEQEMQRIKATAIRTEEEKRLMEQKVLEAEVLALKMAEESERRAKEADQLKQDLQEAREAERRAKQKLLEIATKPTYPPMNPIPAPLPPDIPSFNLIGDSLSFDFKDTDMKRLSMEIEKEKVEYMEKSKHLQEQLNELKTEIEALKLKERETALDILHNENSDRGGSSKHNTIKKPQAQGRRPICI

variants of: B1; assay: reverse yeast two-hybrid deep mutational scan (rY2H-seq): NF2 isoform 7 mutant library as bait mated with wild-type prey strains; selection on medium lacking adenine for non-interacting pairs; NextSeq paired-end sequencing; enrichment vs …; conditions: with EMILIN1 (elastin microfibril interfacer 1), Q9Y6C2; yeast diploids after mating (RBait_S3 x RPrey_S3), 30 °C, selection for reporter genes on NB agar; human tyrosine kinase ABL2 co-expressed as the active kinase …; HIGHER = WEAKER BINDING (the opposite of display enrichments): higher = stronger loss of interaction: reverse Y2H selects yeast in which bait and prey do NOT interact (growth without adenine), so a …; hits-only table; scale: rY2H score; numbering: uniprot, sequence starts at 1
property name: enrichment
Numbers only.

Items follow; give enrichment for each.
1. P407R
2. K330E
3. T332A
4. C217Y
5. G146L
6. Q279E
7. R166N

4.09
1.83
4.79
1.59
6.29
2.35
2.2
